# test summary: Three-day dose escalation toxicology study in mice
# Assay type: in vivo, mouse
# test settings: in vivo; mouse, three-day, 200 mg/kg; read-out: AUCss at 200 mg/kg
parameter measured: AUC at 3 day (µM·h)
Numbers only; they are read as µM·h.

Request: What does the data say about its AUC at 3 day? Entry: Cc1nc(C2CC2)ccc1CNC(=O)c1cc(-n2cccn2)ccc1Cl [compound 8]
Response: 69.9

* * *

# measured target: human mGlu1 (Homo sapiens, UniProt Q13255)
# Construct: expressed in transfected cells; pcDNA5/TO)
# Sequence (Q13255 19-1194): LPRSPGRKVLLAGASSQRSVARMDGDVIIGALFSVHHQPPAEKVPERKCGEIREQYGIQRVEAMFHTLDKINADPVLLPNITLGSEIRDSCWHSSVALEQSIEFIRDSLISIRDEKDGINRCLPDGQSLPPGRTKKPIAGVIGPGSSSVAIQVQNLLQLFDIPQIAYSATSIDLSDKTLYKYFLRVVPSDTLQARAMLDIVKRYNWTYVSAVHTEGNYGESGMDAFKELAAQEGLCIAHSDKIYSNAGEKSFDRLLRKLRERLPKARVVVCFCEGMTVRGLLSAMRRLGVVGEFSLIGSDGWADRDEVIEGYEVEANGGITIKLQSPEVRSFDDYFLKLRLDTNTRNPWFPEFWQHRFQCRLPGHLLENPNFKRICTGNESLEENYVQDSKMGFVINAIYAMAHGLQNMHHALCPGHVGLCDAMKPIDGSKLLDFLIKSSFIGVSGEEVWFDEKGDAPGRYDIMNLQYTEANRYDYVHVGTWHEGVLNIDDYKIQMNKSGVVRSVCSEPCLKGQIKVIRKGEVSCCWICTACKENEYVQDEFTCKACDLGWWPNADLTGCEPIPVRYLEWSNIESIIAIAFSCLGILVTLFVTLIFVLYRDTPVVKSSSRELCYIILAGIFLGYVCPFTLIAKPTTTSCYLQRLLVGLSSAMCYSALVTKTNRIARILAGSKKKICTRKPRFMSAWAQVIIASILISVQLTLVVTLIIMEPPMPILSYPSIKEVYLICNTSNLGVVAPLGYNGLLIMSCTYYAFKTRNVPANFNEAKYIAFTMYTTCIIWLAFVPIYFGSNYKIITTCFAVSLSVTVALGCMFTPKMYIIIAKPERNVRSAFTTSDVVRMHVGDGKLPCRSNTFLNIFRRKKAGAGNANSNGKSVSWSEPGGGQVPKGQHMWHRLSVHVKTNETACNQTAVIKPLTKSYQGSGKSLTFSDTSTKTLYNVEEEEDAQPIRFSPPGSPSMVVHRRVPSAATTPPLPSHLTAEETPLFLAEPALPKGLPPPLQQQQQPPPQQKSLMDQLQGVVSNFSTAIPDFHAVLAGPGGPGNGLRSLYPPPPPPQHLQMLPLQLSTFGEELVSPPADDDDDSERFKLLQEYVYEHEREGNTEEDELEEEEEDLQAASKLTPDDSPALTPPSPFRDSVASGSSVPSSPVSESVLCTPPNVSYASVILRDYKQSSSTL
# test summary: mGlu1 PAM calcium mobilization assay (human)
# Format: cell-based
Measured human mGlu1 Glu Max, listed per entry.
Answer in %, number only, no unit symbol.

For orientation, consider the following solved cases.
molecule	reading
Cc1nc2ccccc2cc1CNC(=O)c1cc(-n2cccn2)ccc1Cl [compound 6]	56
Cc1nc2c(F)cccc2cc1CNC(=O)c1cc(-n2cccn2)ccc1Cl [compound 7]	56
Cn1cc(-c2cc(CNC(=O)c3cc(-c4ccco4)ccc3Cl)n(C)n2)cn1 [compound 4]	72
Cn1nc(-c2ccnn2C)cc1CNC(=O)c1cc(-n2cccn2)ccc1Cl [compound 5]	76

Request: Returns the measured human mGlu1 Glu Max for the input molecule. Input: Cc1nc(C2CC2)ccc1CNC(=O)c1cc(-n2cccn2)ccc1Cl [compound 8]
Response: 65
